Each item that follows carries a reported % max inhibition of shedding.
Target: MICA*004 on HCC1534 cells (human, UniProt Q29983 24-383)
Experiment: cell-based or functional assay
Return type: number; implicit unit %.

Study these solved cases before continuing.
9C9.5.6 (antibody, V domains shown, Mouse hybridoma antibody; constant regions differ by assay) VH: QVQLKESGPGLVAPSQSLSITCTVSGFSLNGQGVNWVRQPPGKGLEWLGMIWGDGSTDYNSALKSRLSISKDNSRSQVFLKMNSLQTDDTARYYCARGAHYGKRWYFDVWGAGTTVTVSS VL: DIQMTQTTSSLSASLGDRVTISCSASQNINNYLNWYQQKPHGTVKLLIYYTSSLPSGVPSRFSGSGSGTDYSLTISNLEPEDIASYYCQQYSKLPPTFGGGTKVEIK: 44
1D5 (antibody, V domains shown, Mouse variable domains; constant regions differ by assay (human IgG1 or mouse IgG2a); also called anti-MIC 1D5) VH: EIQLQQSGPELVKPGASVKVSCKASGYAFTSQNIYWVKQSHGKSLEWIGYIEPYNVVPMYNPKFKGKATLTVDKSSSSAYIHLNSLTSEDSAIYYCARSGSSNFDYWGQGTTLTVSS VL: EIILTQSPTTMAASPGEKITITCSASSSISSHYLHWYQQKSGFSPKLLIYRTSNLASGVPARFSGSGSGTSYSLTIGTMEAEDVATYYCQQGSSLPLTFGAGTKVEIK: 81

Here is the next item to consider.
# input What value of % max inhibition of shedding has been reported for the following binder? 18G3 (antibody, V domains shown, Mouse variable domains; constant regions differ by assay) VH: VQLQESGPGLVKPSQSLSLTCNVTGYSITGDYAWNWIRQFPGNKLEWIGYIGYTGSTTYNPSLKSRVSITRDTSKNQFFLQLNSVTPEDTATYYCARWRNWAMDYWGLGTSVTVSS VL: DIQMTQTPSSLSASLGDRVTISCRANQDISHYLNWYQQKPDGAVKLLIYYTSRIHSGVPSRFSGSGSGTDYSLTIANLEQEDVATYFCQQGNTPPTTFGGGTKVEIK
# output 74
